# Test system: S. enterica typhimurium WT;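 further: active when median AUC fell below 0.1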
# Protocol text: growth AUC normalised to DMSO control (median) (fraction of control); higher = less growth inhibition, active = hit call of the paper
# Experimental conditions: 20 µM
Structures can show the parent of a compound that is named as a salt.
Measured growth AUC normalised to DMSO control of individual entries

[
  {
    "Compound": "CC(C)NC[C@@H](O)COc1ccc(CC(N)=O)cc1 [(R,+) Atenolol]",
    "growth AUC normalised to DMSO control": 1.02
  },
  {
    "Compound": "COc1ccc(-c2ccc3cc(C(=O)O)ccc3c2)cc1C12CC3CC(CC(C3)C1)C2",
    "growth AUC normalised to DMSO control": 0.988
  },
  {
    "Compound": "Cc1c(C)c2c(c(C)c1O)CCC(C)(C(=O)O)O2 (centres undefined)",
    "growth AUC normalised to DMSO control": 1
  },
  {
    "Compound": "C[C@@H](CN1CC(=O)NC(=O)C1)N1CC(=O)NC(=O)C1 [Dexrazoxane hydrochloride]",
    "growth AUC normalised to DMSO control": 1.01
  },
  {
    "Compound": "c1ccc([C@H]2CN3CCSC3=N2)cc1 [Levamisole hydrochloride]",
    "growth AUC normalised to DMSO control": 1
  },
  {
    "Compound": "CNCCCN1c2ccccc2CCc2ccccc21 [Desipramine hydrochloride]",
    "growth AUC normalised to DMSO control": 0.964
  },
  {
    "Compound": "c1coc(CNc2ncnc3[nH]cnc23)c1",
    "growth AUC normalised to DMSO control": 1
  },
  {
    "Compound": "CCCC(=O)N1CCCN(c2nc(N)c3cc(OC)c(OC)cc3n2)CC1 [Bunazosin hydrochloride]",
    "growth AUC normalised to DMSO control": 1
  },
  {
    "Compound": "C[C@H](CCc1ccccc1)NC[C@H](O)c1ccc(O)c(C(N)=O)c1",
    "growth AUC normalised to DMSO control": 0.996
  }
]
